- Tested on: BJ
- run_description: cells
- Assay type: functional, cell-based
- setup_conditions: Homo sapiens
The source made the active and inactive calls.
measured_endpoint: EC50

The examples below pair each entry with its known result.
Cc1ccc(C2CC(c3cccs3)=NN2C(=O)CCl)cc1 (centres undefined)    5.54 µM (active)
CCOc1ccccc1Nc1nc(-c2sc(NC(=O)c3ccc([N+](=O)[O-])cc3)nc2C)cs1    12.7 µM (active)
Cc1cccc(-c2nc3cc(NC(=O)C4CCCO4)ccc3o2)c1 (centres undefined)    19.8 µM (active)

Lookup result for COc1cc(NC(=O)c2csc(N)n2)cc(C(=O)Nc2cccc(C(F)(F)F)c2)c1 ; measured EC50: 52.4 µM (inconclusive)

###

Known AC50 of a selection of compounds
- tgt: Paired box protein Pax-8 (Homo sapiens, UniProt Q06710)
- Sequence (Q06710 whole entry): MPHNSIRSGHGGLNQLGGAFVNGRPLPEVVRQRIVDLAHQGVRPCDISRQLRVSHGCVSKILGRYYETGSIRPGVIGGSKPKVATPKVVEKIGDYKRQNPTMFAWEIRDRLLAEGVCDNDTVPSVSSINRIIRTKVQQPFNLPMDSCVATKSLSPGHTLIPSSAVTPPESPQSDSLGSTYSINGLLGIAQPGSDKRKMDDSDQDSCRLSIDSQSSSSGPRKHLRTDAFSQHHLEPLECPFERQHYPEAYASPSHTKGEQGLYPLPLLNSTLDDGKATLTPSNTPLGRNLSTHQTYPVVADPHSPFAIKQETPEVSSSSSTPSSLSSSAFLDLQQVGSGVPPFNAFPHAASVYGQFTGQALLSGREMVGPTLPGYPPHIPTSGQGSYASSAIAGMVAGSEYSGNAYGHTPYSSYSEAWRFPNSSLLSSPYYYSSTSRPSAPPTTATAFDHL
- run_description: PAX8 transcriptional activity inhibition in RMG-I – RMG-I cells, luciferase, cherry-pick, dose response (AID 687027);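 further: luciferase reporter driven by Pax8 target thyroperoxidase promoter measured by SteadyGlo luminescence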
- Type: functional, cell-based
The source made the active and inactive calls.

C[C@H](CO)N1C[C@H](C)[C@@H](CN(C)Cc2ccccc2)OCCCC[C@H](C)Oc2ccc(NC(=O)Nc3ccc(C(F)(F)F)cc3)cc2C1=O    13.5 µM (active)

Simply: O=C(CCl)Nc1cc2[nH]c(O)nc2cc1Br , Paired box protein Pax-8 (Homo sapiens, UniProt Q06710), AC50 = 3.95 µM (active)

Simply: COc1ccccc1C#Cc1ccc([C@H]2[C@@H](CO)N(C(=O)C3CCCCC3)[C@H]2C#N)cc1 , Paired box protein Pax-8 (Homo sapiens, UniProt Q06710), AC50 = 3.4 µM (active)

Simply: COc1ccccc1S(=O)(=O)N(C)C[C@@H]1Oc2cc(C#CCC3CCCC3)ccc2S(=O)(=O)N([C@@H](C)CO)C[C@@H]1C , Paired box protein Pax-8 (Homo sapiens, UniProt Q06710), AC50 = 6.16 µM (active)

###

- tgt: Cytochrome P450 2C19 (Homo sapiens, UniProt P33261)
- Sequence (P33261 whole entry): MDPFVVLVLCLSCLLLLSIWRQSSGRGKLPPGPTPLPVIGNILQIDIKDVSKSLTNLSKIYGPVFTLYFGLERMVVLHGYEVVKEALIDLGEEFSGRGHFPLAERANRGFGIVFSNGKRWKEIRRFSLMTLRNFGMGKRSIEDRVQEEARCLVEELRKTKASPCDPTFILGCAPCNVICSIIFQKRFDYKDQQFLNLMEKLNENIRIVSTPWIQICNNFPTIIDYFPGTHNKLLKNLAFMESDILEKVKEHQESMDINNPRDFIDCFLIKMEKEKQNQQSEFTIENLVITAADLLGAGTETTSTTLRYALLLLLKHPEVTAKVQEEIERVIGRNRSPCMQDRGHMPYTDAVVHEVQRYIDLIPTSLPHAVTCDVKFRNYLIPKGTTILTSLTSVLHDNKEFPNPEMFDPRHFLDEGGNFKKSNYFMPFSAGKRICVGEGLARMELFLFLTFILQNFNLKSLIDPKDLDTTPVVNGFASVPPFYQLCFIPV
- run_description: Cytochrome panel assay with activity outcomes. Panel member name: p450-cyp2c19 Compounds with AC50 equal or less than 10 uM are considered active
- Format: functional
- setup_conditions: read-out: AC50
measured_endpoint: AC50

O=c1c(-c2ccc(Cl)cc2)nc2cncnc2n1Cc1ccccc1    25.1 µM (inconclusive)

Lookup result for COC(=O)C1=C(N)Oc2cc(C)n(CC3CCCO3)c(=O)c2C1c1ccccc1OC (stereo not given) ; measured AC50: 22.4 µM (inconclusive)

Lookup result for Cc1cc(NC(=O)C2CCCC2)n(-c2nc3ccccc3[nH]2)n1 ; measured AC50: 10 µM (inconclusive)

Lookup result for COc1ccc(CC(=O)O/N=C(\N)Cc2ccc(OC)cc2)cc1 ; measured AC50: 14.1 µM (inconclusive)

Lookup result for CC(C)C12CN3CC(C(C)C)(CN(C1)C3c1ccco1)C2=O (stereo not given) ; measured AC50: 28.2 µM (inconclusive)

###

- tgt: Protein skinhead-1 (Caenorhabditis elegans, UniProt P34707)
- Sequence (P34707 whole entry): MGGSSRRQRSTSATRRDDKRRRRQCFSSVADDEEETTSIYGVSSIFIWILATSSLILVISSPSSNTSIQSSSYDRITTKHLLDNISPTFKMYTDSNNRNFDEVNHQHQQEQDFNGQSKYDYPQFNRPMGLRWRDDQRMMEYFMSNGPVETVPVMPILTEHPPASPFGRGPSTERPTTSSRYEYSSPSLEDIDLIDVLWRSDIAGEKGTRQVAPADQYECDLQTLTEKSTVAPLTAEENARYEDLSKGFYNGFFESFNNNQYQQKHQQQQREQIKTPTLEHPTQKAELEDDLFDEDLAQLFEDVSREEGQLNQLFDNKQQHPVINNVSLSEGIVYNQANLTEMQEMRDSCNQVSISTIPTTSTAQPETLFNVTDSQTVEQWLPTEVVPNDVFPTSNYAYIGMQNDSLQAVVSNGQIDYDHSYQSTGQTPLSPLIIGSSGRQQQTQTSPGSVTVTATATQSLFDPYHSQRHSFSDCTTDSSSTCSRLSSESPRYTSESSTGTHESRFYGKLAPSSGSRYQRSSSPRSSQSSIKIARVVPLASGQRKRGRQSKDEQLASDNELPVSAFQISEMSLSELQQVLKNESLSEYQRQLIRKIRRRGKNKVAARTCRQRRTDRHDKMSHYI
- Assay type: functional
The source made the active and inactive calls.
Could you please pick one outcome from this set? T (active), F (inactive)

O=C(/C=C/c1ccc(Cl)cc1)Nc1ccc(CN2CCOCC2)cc1    T
COc1ccc(NC2CC(=O)N(CCc3ccccc3)C2=O)cc1 (stereo not drawn)    F
COc1ccc(/C=C/C(=O)c2nc3ccccc3n2CC(=O)c2ccc(OC)cc2)cc1    F
Cc1nc(Oc2ccccc2)c2oc3ccccc3c2n1    F
COC(=O)CCCC1=CC2=CC(=O)C(C)(OC(=O)c3cccs3)C(=O)C2=CN1CC(C)C (stereo not drawn)    F

Lookup: Write down the call the test reported for this molecule. Item: O=C(NCc1nc2ccccc2[nH]1)C1=C[C@H](C2CCCCC2)C[C@H](OCc2ccc(CO)cc2)O1
Found: F

Lookup: Write down the call the test reported for this molecule. Item: Clc1ccc2c(c1)c1cc(Cl)ccc1n2CN1CCOCC1
Found: F

Lookup: Write down the call the test reported for this molecule. Item: CCOC(=O)c1c(C)c(C)n2c1NC(=O)C2
Found: F

###

- tgt: Zinc finger protein mex-5 (Caenorhabditis elegans, UniProt Q9XUB2)
- Sequence (Q9XUB2 whole entry): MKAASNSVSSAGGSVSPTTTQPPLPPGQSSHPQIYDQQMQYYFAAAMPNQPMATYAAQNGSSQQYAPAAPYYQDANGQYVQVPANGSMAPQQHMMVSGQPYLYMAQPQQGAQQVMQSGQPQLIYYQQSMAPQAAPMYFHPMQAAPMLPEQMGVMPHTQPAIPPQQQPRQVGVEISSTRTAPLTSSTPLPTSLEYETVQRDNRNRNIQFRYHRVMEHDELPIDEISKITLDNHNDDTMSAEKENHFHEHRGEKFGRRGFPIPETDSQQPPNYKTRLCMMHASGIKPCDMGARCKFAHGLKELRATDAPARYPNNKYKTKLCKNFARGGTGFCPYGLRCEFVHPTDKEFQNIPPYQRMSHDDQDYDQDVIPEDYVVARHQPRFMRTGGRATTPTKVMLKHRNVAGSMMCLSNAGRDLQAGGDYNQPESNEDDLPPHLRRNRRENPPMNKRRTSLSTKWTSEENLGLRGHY
- run_description: potency of MEX-5 RNA-binding blockers – biochemical, C. elegans, fluorescence polarization, dose response (AID 1960)
Calls of active or inactive are those of the source.
Known EC50 of a selection of compounds

The examples below pair each entry with its known result.
O=C(O)CCC(=O)NNc1nc(-c2ccccc2)c2cc(Cl)ccc2n1    9.18 µM (active)
O=C(O)Cc1ccc(O)c(O)c1 [3,4-DIHYDROXYPHENYLACETIC ACID]    28.9 µM (active)
Cc1ccc(C(=O)CSc2nc3c(=O)n(C)c(=O)n(C)c3[nH]2)cc1    > 300 µM (not active)
O=C(N/N=C/c1ccc(-c2cccc([N+](=O)[O-])c2)o1)c1ccc([N+](=O)[O-])cc1    > 300 µM (not active)
Cc1cc(/C=C2\C(=O)NC(=O)N(c3ccccc3)C2=O)c(C)n1-c1ccc(C(=O)O)c(Cl)c1    > 300 µM (not active)
Oc1cc2c(cc1O)C(c1ccccc1)CNCC2 (centres undefined)    24 µM (active)

Lookup result for CCc1ccc(C(=O)NNC(=O)c2ccc(=O)n(C)n2)cc1 ; measured EC50: 6.42 µM (active)

Lookup result for COc1c(O)cccc1[C@@H](O)C1CCN(CCc2ccc(F)cc2)CC1 ; measured EC50: 14.1 µM (inconclusive)

Lookup result for CCOc1cccc(=O)c2c(C)n(-c3ccc(C(=O)O)cc3)c(C)c12 ; measured EC50: 29.6 µM (active)

###

- tgt: Heat shock protein HSP 90-alpha (Homo sapiens, UniProt P07900)
- Format: functional, organism-based
Active and inactive are the calls of the source.
measured_endpoint: AC50

O=C1S/C(=C\c2ccc(N3CCOCC3)o2)C(=O)N1Cc1c(F)cccc1Cl    18.5 µM (active)
O=C1CC(N2CCCN(C3CC(=O)N(c4ccc(F)cc4)C3=O)CC2)C(=O)N1c1ccc(F)cc1 (stereo not given)    4.32 µM (active)
CC1=NOC(=O)/C1=C\c1ccc(-c2ccc(Br)cc2)o1    4.12 µM (active)

Lookup result for N#C/C(=C/c1ccc(N2CCCCCC2)o1)c1ccc(Cl)cc1 ; measured AC50: 20.4 µM (active)

Lookup result for CCN1/C(=C\c2ccc3ccccc3[n+]2CC)Sc2cc(C)ccc21 ; measured AC50: 7.75 µM (active)

Lookup result for S=C1SCN(Cc2cccnc2)CN1Cc1cccnc1 ; measured AC50: 4.53 µM (active)

Lookup result for Cc1ccc(N2C(=O)C3C4C=CC(CN=C(S)N5CCN(c6ccccn6)CC5)(O4)C3C2=O)cc1 (stereo not given) ; measured AC50: 7.77 µM (active)

Lookup result for COc1ccc(C(=O)/C=C2\C(=O)Nc3ccc(Br)cc32)cc1 ; measured AC50: 1.59 µM (active)

Lookup result for O=[N+]([O-])c1cc(/C=N/O)ccc1Oc1ccccc1Cl ; measured AC50: 3.04 µM (active)

Lookup result for CCCCCCCCCCOC(=O)C[n+]1c(COc2ccc(C)cc2)n(C)c2ccccc21 ; measured AC50: 19.3 µM (active)
